The reported measurements were obtained from PubChem BioAssay (NCI).

growth inhibition listing for selected molecules.
assay: NCI Yeast Anticancer Drug Screen. Data for the wt2 strain (AID 169);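 also: 0% = growth of vehicle-treated yeast cultures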; details: S. cerevisiae wt2 strain growth inhibition; at 100.0 µM; stronger effect = higher value
About 79,000 compounds went through this panel and 15% of them were active in at least one assay; those are over-represented in the sample as a whole.
All answers are understood in %, so give the number only.

Report growth inhibition for O=C1c2ccccc2C(=O)C(Cl)C1Cl (stereo not given)
99

Report growth inhibition for CC1=C(O)C(=O)C=C2C1=CC=C1[C@@]2(C)CCC2(C)[C@@H]3C[C@@H](C)C(=O)C[C@]3(C)CC[C@]12C (stereo not given in full)
96

Report growth inhibition for O=C(COc1ccc(Cl)cc1Cl)NO
50

Report growth inhibition for O=C1c2ccc3ccccc3c2CCC1N1CCCCC1 (stereo not given)
97

Report growth inhibition for Cc1c(N)nc([C@H](CC(N)=O)NC[C@H](N)C(N)=O)nc1C(=O)N[C@H](C(=O)N[C@H](C)[C@@H](O)[C@H](C)C(=O)N[C@H](C(=O)NCCc1nc(-c2nc(C(=O)NCCC[S+](C)C)cs2)cs1)[C@@H](C)O)C(OC1OC(CO)C(O)C(O)C1OC1OC(CO)C(O)C(OC(N)=O)C1O)c1cnc[nH]1 (stereo not given in full)
93

----------
growth inhibition listing for selected molecules.
assay: NCI Yeast Anticancer Drug Screen. Data for the bub3 strain (AID 167); conditions: S. cerevisiae bub3 mutant strain, at 5.0 µM (retest, dose inferred, filed as 0.5), stronger effect = higher value
About 79,000 compounds went through this panel and 15% of them were active in at least one assay; those are over-represented in the sample as a whole.
All answers are understood in %, so give the number only.

Report growth inhibition for Nc1ccc(N=Nc2ccccc2)cc1
3

Report growth inhibition for CCC[As](CCC)SC1CCC2(C)C(=CCC3C4CCC(=O)C4(C)CCC32)C1 (stereo unspecified)
0

Report growth inhibition for O=c1oc2ccccc2c(O)c1C(c1ccc2ccccc2c1)c1c(O)c2ccccc2oc1=O
10

Report growth inhibition for CCC/C=[CH]/[Hg][Cl]
99

Report growth inhibition for CCC[N+](CCC)(CCC)CCC.N#CN=C([SH2+])[SH2+].N#CN=C([SH2+])[SH2+].[Pt+2]
-5

Report growth inhibition for Nc1c(Cl)cccc1C(=O)O
3

Report growth inhibition for CC[N+](C)(CC)CCNC(=O)C(O)(c1ccccc1)c1ccccc1
-5

Report growth inhibition for CC(C)(c1ccccc1)c1ccc(O)cc1
-23

Report growth inhibition for C/C(=N\NC(N)=O)C(CN1CCOCC1)C(c1ccccc1)c1c(O)c2ccccc2oc1=O (stereo unspecified)
-7

Report growth inhibition for COC(=O)C1=C(C(=O)OC)C2OC1c1cc3ccccc3cc12
64

Report growth inhibition for CCCCC1C(=O)NC(=S)N(c2ccccc2)C1=O (stereo unspecified)
0

----------
experiment: NCI Yeast Anticancer Drug Screen. Data for the mec2-1 strain (AID 157); conditions: S. cerevisiae mec2-1 strain, at 50.0 µM (retest, dose inferred, filed as 5.0), stronger effect = higher value
This is part of a sample that, as a whole, favours compounds with a hit. Of some 79,000 tested, about 15% had one in any assay.
property_measured: growth inhibition (%)
All answers are understood in %, so give the number only.

Example compounds with recorded growth inhibition:
compound: CCC[CH2][Sn]1([CH2]CCC)[O]N=Cc2ccccc2[O]1
growth inhibition / %: 97
--
compound: [I][Hg][CH2]C1COCC([CH2][Hg][I])O1 (stereo unspecified)
growth inhibition / %: 6

Report growth inhibition for O=C(c1ccccc1)C1CCCN(CCc2ccccc2)C1 (stereo unspecified)
70

Report growth inhibition for CS(=O)(=O)[O-].CS(=O)(=O)[O-].NC1CCCCC1N.[Pt+4] (stereo unspecified)
99

Report growth inhibition for CC(=O)[O][Hg][c]1c(C)c(C)c(C)c(C)c1C
97

Report growth inhibition for FC(F)(F)c1nnn[n-]1.[Au+].c1ccc([PH+](c2ccccc2)c2ccccc2)cc1
97
